Target Of Assay: T1, IL-2Rβγ on HEK-Blue IL-2Rβγ reporter cells (InvivoGen) (UniProt P14784 27-551; P31785 23-369, limits assumed)
T1 sequence (looked up) 1: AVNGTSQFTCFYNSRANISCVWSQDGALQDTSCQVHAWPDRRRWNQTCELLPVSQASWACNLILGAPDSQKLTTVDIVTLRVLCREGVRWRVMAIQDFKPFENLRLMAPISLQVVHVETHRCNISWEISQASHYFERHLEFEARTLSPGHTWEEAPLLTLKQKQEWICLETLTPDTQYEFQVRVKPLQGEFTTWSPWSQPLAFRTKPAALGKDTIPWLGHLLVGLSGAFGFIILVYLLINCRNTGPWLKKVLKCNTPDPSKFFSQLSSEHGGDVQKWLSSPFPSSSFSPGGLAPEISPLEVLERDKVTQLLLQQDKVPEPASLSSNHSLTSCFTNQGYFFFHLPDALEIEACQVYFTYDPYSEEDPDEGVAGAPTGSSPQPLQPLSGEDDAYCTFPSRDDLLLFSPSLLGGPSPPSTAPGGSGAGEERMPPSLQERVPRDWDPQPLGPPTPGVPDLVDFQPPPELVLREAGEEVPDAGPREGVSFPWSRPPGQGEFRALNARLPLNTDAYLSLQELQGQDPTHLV
T1 sequence (looked up) 2: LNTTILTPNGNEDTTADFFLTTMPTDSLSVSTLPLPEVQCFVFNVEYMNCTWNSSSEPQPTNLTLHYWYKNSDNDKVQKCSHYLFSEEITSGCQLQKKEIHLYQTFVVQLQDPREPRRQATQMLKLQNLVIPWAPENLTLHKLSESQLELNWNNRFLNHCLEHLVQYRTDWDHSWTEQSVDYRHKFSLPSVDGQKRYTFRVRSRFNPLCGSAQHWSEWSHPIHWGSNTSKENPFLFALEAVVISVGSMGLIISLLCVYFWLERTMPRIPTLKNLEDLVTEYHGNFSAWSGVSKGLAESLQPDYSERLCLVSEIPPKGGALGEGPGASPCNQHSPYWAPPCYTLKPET
Measurement Protocol: cell-based or functional assay
Bridges are numbered along the chain shown (N, C = ends). Primed or numbered codes have the meaning given here. [ ]: non-standard residue; d: D form. Ygp(4) = Tyr with amino-capped PEG8 (O-(8x polyethylene glycol-amino)-tyrosine); Yn3(4) = Tyr with azide-capped PEG9 (O-(9x polyethylene glycol-azido)-tyrosine); Ygp = O-(8x polyethylene glycol-amino)-tyrosine (Tyr, amino-capped PEG8); Yn3 = O-(9x polyethylene glycol-azido)-tyrosine (Tyr, azide-capped PEG9); Ygp″ = O-(8x polyethylene glycol-amino)-tyrosine; Yn3″ = O-(9x polyethylene glycol-azido)-tyrosine; Ygp(6) = Tyr, amino-capped PEG8; Yn3(6) = Tyr, azide-capped PEG9; PEG9′ = 9x polyethylene glycol; hSer = N[C@@H](CCO)C(=O)O; Nle = CCCC[C@H](N)C(=O)O
Listed binders paired with reported Average EC50, HEK-Blue IL-2R (CD122+, CD132+) Reporter Assay, intact molecule
Endpoint: Average EC50, HEK-Blue IL-2R (CD122+, CD132+) Reporter Assay, intact molecule (pM)

Binder	Reported
CMP-305 (ligand, bridge 15-23; not fully specified (bridges); ends not checked) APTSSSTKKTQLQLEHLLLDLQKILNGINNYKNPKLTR[Nle]L[hSer][Yn3(4)]KF[Ygp(4)][Nle]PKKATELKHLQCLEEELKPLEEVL[hSer]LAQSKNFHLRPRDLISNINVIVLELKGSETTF[hSer]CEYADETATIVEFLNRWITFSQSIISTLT	497
CMP-320 (ligand, lactam N-34) SGRVAPQPLVDAPTSSSTKKTQLQLEHLLLDLQEILNGINNYKNPKLTR[Nle]L[hSer][Yn3(6)]KF[Ygp(6)][Nle]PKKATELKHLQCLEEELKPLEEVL[hSer]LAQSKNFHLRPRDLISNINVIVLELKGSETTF[hSer]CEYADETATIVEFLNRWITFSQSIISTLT	775
CMP-301 (ligand, lactam N-31; ends not checked) GPLGLAG[PEG9′]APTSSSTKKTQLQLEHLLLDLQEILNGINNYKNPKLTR[Nle]L[hSer][Yn3″]KF[Ygp″][Nle]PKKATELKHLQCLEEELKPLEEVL[hSer]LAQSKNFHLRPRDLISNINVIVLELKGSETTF[hSer]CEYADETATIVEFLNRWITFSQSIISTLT	591
CMP-329 (ligand, bridge 9-23; not fully specified (bridges); ends not checked) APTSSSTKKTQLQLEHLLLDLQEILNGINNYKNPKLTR[Nle]L[hSer][Yn3″]KF[Ygp″][Nle]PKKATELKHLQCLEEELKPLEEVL[hSer]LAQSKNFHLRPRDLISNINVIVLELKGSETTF[hSer]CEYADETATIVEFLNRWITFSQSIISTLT	1700
CMP-316 (ligand, ends and bridges not checked; also: further groups not given here) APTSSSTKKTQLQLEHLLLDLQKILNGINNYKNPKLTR[Nle]L[hSer][Yn3]KF[Ygp][Nle]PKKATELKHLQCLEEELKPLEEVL[hSer]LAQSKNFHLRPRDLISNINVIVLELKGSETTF[hSer]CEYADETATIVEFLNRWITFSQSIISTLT	96.8

These entries and their values trace back to patent US20240376170A1.
